testSummary: RAM pathway blockade in budding yeast – dse1pr::URA3 reporter, 5-FOA selection, pilot screen (AID 869);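 also: 0% = DMSO wells with no growth and 100% = 10 µM 1-NA-PP1 with full growth; RAM network block rescues cells from 5-FOA so hits raise OD615 growth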
settings: S. cerevisiae dse1pr::URA3 5-FOA growth, OD615, 2 d; at 10 µM; hits give high values; strain carries analog-sensitive mutant Cbk1 kinase
Consider the following compounds and their measured inhibition readings.
measurementKind: inhibition (%)

| compound | unitsSymbol | resultValue |
| --- | --- | --- |
| O=C1C(=O)N(CCCn2ccnc2)C(c2cccnc2)/C1=C(/O)c1ccc(Cl)cc1 (stereo not given) | % | 0.905 |
| O=C(Cn1c(=O)[nH]c2ccsc2c1=O)NC1CCCCCC1 | % | 0.875 |
| CCCOc1ccc(N2CC(C(=O)Nc3ccc4c(c3)OCO4)CC2=O)cc1 (stereo not given) | % | 2.89 |
| Cc1[nH]c2ccccc2c(=O)c1CN1CCCCC1 | % | 0.515 |
| CC(=O)C1C(c2ccc(Cl)cc2)NC(=O)NC1(O)C(F)(F)F (stereo not given) | % | 0.825 |
| NC(=O)C1CCN(CCCNC2CC(=O)N(Cc3ccc(N4CCCC4=O)cc3)C2=O)CC1 (stereo not given) | % | 1.15 |
| CC(C)CC1NC2(C(=O)N(C)c3ccccc32)C2C(=O)N(C(C)C)C(=O)C12 (stereo not given) | % | 1.11 |
| Cn1nnnc1SCC(=O)Nc1ccccc1C(=O)NCc1ccccc1 | % | 1.04 |
| CCn1cc(C(=O)N2CCOCC2)c(=O)c2cc(S(=O)(=O)N(C)C3CCCCC3)ccc21 | % | 0.85 |
| N#CCn1nnc(-c2ccc3c(c2)OCO3)n1 | % | 0.46 |

====

testSummary: reduced viability of SK-BR-3 breast cancer cells – cell-based, 24 h, human, pilot screen (AID 572);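 also: compound exposure lasted between 18 and 24 h rather than exactly 24 h; 100% = carrier-treated control wells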
settings: SK-BR-3 viability, CellTiter-Glo luminescence, at 10 µM, hits give low values
measurementKind: viability (%)

| molecule | resultValue |
| --- | --- |
| CN1CCN(Cc2nc3c(c(=O)[nH]c(=O)n3C)n2CCc2ccccc2)CC1 | 82 |
| COc1ccccc1CNC(=O)C1CCCN(S(=O)(=O)c2cccc3cccnc23)C1 (stereo unspecified) | 92.5 |
| COc1ccc(CN2C(=O)CN=C2Nc2ccc(C)cc2C)cc1 | 85 |
| CCOc1ccc(Cn2nnc(C(=O)Nc3cc(C)cc(C)c3)c2N)cc1 | 89.5 |
| Cc1cc(C)nc(SCc2csc(N)n2)n1 | 89.5 |
| COc1ccc(C(=O)NCc2nnc(SC)n2C2CCCCC2)cc1 | 104 |
| CCOC(=O)CSC1=C(C#N)C(c2ccc(C)o2)CC(=O)N1 (stereo unspecified) | 98.5 |
| COc1cccc(C2CC(c3c(Cl)cccc3Cl)n3nc(N)nc3N2)c1 (stereo unspecified) | 97 |
| Cc1ccc(-c2cc3nc4c(c(=O)n3[nH]2)CCCC4)cc1 | 105 |
| Cc1cc(N)n2nc(-c3ccccc3)cc2n1 | 95 |
| CC12CN3CC(C)(CN(C1)C3c1ccc(Cl)cc1Cl)C2=O (stereo unspecified) | 97 |
| Clc1ccc(SCCCCn2ccnc2)cc1 | 90.5 |
| CCOC(=O)Cn1c(CN(C)Cc2ccccc2)nc2c1c(=O)n(C)c(=O)n2C | 94 |
| O=C1c2ccccc2S(=O)(=O)N1CC(O)Cn1c2ccccc2c2ccccc21 (stereo unspecified) | 90 |
| CC(NC(=O)c1noc2c1CCCCC2)c1ccccc1 (stereo unspecified) | 85.5 |
| O=C(C1CC1)N1CCc2cc(Br)cc(S(=O)(=O)N3CCOCC3)c21 | 98 |
| COc1ccc(NC(=O)CSc2nnc(Cc3cccn3C)n2-c2ccc(F)cc2)cc1 | 96 |
| CN1CCC(NC(=O)c2cccs2)CC1 | 106 |
| O=C(NC(=O)c1cccc(F)c1)OC[C@@H]1CCCN2CCCC[C@H]12 | 102 |
| COc1ccc(OC)c(C2=NOC(C(=O)Nc3c(C)n(C)n(-c4ccccc4)c3=O)C2)c1 (stereo unspecified) | 88.5 |
| COc1ccc(-n2c(Cc3cccn3C)nnc2SCC(=O)Nc2cccc(Cl)c2)cc1 | 103 |
| Cc1c(C(=O)OCc2ccccc2)[nH]c2c1C(=O)CC(c1ccco1)C2 (stereo unspecified) | 86.5 |
| O=C1CCCCCC1C1(O)C(=O)Nc2ccccc21 (stereo unspecified) | 100 |
| Cc1nc2sc(C(c3cccs3)N3CCOCC3)c(O)n2n1 (stereo unspecified) | 90 |
| COc1ccc(OCC(=O)N2CC3(C)CC2CC(C)(C)C3)cc1 (stereo unspecified) | 96 |
| COc1ccc(C2c3c(oc4ccccc4c3=O)C(=O)N2c2ccc(C)cn2)cc1OC (stereo unspecified) | 83 |
| Cc1c(C)n(C)c2ccc(C(=O)NCc3cccs3)cc12 | 93.5 |
| C=CCNC(=O)CSc1nc2sc(C)c(C)c2c(=O)[nH]1 | 96.5 |
| Cc1cc(C)cc(N2C(=O)CC(N3CCOCC3)C2=O)c1 (stereo unspecified) | 104 |
| CCN(CC)Cc1c(C(=O)OC)nnn1-c1nonc1N | 87 |
| O=C(CSc1nnc(Cn2c(=O)sc3ccccc32)n1-c1ccccc1)NCC1CCCO1 (stereo unspecified) | 80.5 |
| CSc1ccccc1NC(=O)c1cnc2n(c1=O)CCS2 | 97.5 |
| CCCCS(=O)(=O)NC1=NCN(CCOC(=O)c2ccccc2)CN1 | 95.5 |
| Cc1cccc(NC(=O)CS(=O)(=O)c2cn(C)c3ccccc23)c1 | 98 |
| COc1ccc(-n2ncc3c(N4CCN(c5cccc(C)c5C)CC4)ncnc32)cc1 | 88 |
| Cc1cccc(Cn2c(SCCN3CCCCC3)nc3c2c(=O)[nH]c(=O)n3C)c1 | 75 |
| COc1cc(NC(=O)C2C3C=CC(C3)C2C(=O)O)c(OC)cc1Cl (stereo unspecified) | 86 |
| COc1ccc(Cl)cc1S(=O)(=O)N1CCN(c2ccc(F)cc2)CC1 | 80 |
| Cc1cc(N=Cc2cc(Br)ccc2O)no1 | 108 |
| CCN(CC)S(=O)(=O)c1ccc2c(c1)nc(SCn1nnc3ccccc3c1=O)n2CC | 74 |
| CCCSc1nc2c(cnn2-c2ccc(C)cc2)c(=O)[nH]1 | 93 |
